system: MDA-MB-231 breast; experiment: NCI tumour cell line growth inhibition, 48 h
Listed next: entries and their corresponding log10 TGI.
Scale: decimal log of TGI, TGI in µM.

For orientation, consider the following solved cases.
O=C(N=Nc1cc(Cl)ccc1Cl)NNc1cc(Cl)ccc1Cl: 1.60
CCN(CC)CCNC(=O)c1cn2ncnc(Oc3ccc(NC(=O)Nc4ccc(Cl)c(C(F)(F)F)c4)c(F)c3)c2c1C: 0.52
O=C(NCCN1CCOCC1)c1ccc2cc(C(=O)N3CC(CCl)c4ccc([N+](=O)[O-])cc43)[nH]c2c1 (stereo not given): 1.56
Cn1cc(-c2csc(-c3cn(C)c4ccccc34)n2)c2cnccc21: 0.46
CCCNC(=O)CCC(C)[C@H]1CCC2C3C(C[C@H](OC(C)=O)[C@@]21C)[C@@]1(C)CCC2(C[C@H]1C[C@H]3OC(C)=O)OOC1(CCC(C)CC1)OO2 (stereo not given in full): 1.99

# input compound: "O=c1oc(-c2ccc(O)c(O)c2)cc2cccc(O)c12" ; wanted: its log10 TGI 1.67
